molecular target: Cbl-b (Homo sapiens (Human), UniProt Q13191); assay: Cbl-b LCK Ub TR-FRET assay (Cbl-b Lck HTRF); assay type: biochemical; conditions: Cbl-b LCK Ub TR-FRET
Sequence (Q13191 40-426): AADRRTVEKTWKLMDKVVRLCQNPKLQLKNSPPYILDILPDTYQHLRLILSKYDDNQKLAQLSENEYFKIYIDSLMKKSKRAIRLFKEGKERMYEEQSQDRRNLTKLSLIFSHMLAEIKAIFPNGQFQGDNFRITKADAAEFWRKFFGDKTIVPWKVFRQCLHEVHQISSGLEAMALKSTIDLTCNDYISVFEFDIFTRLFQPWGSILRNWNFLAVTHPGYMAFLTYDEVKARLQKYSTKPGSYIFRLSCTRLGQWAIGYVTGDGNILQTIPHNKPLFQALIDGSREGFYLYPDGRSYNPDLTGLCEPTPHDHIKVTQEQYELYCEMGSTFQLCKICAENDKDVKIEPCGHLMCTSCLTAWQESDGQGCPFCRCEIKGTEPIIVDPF

Molecule: CC[C@@H](c1cccc(N2Cc3c(Cl)cc(CNC4(C)CCC4)cc3C2=O)c1)c1nncn1C (single isomer, unassigned) [Compound 359]
Assayed Target: Cbl-b (Homo sapiens (Human), UniProt Q13191)
U: nM
IC50: 4.8
//
Molecule: Cn1cnnc1[C@@H](c1cccc(N2Cc3c(cc(CNC4(C)CCC4)cc3C(F)(F)F)C2=O)c1)C1CC(OC(F)F)C1 (single isomer, unassigned) [Compound 387]
Assayed Target: Cbl-b (Homo sapiens (Human), UniProt Q13191)
U: nM
IC50: 130
//
Molecule: Cn1cnnc1[C@H](c1cccc(N2Cc3c(cc(CNC4(C)CCC4)cc3C(F)(F)F)C2=O)c1)C1CC1 (single isomer, unassigned) [Compound 343]
Assayed Target: Cbl-b (Homo sapiens (Human), UniProt Q13191)
U: nM
IC50: 290
//
Molecule: COc1cc([C@H](c2nncn2C)C2COC2)cc(N2Cc3c(cc(CNC4(C)CCC4)cc3C(F)(F)F)C2=O)c1 (single isomer, unassigned) [Compound 338]
Assayed Target: Cbl-b (Homo sapiens (Human), UniProt Q13191)
U: nM
IC50: 3800
//
Molecule: Cn1cnnc1C(c1cccc(N2Cc3c(cc(CNC4(C)CCC4)cc3C(F)(F)F)C2=O)c1)[C@H]1C[C@H](CC#N)C1 (single isomer, unassigned) [Compound 364]
Assayed Target: Cbl-b (Homo sapiens (Human), UniProt Q13191)
U: nM
IC50: 2.5
//
Molecule: Cn1cnnc1[C@H](CC1CCCC1)c1cccc(N2Cc3c(cc(CNC4(C)CCC4)cc3C(F)(F)F)C2=O)c1 [Compound 249]
Assayed Target: Cbl-b (Homo sapiens (Human), UniProt Q13191)
U: nM
IC50: 100
//
Molecule: Cn1cnnc1[C@H](c1cccc(N2Cc3c(Cl)cc(CNC4(C)CCC4)cc3C2=O)c1)C1COC1 (single isomer, unassigned) [Compound 271]
Assayed Target: Cbl-b (Homo sapiens (Human), UniProt Q13191)
U: nM
IC50: 1800
//
Molecule: Cn1cnnc1[C@@H](c1cccc(N2Cc3c(cc(CNC4(C)CCC4)cc3C(F)(F)F)C2=O)c1)C1CC(F)C1 (single isomer, unassigned) [Compound 130]
Assayed Target: Cbl-b (Homo sapiens (Human), UniProt Q13191)
U: nM
IC50: 5.5
//
Molecule: Cn1cnnc1[C@]1(c2cccc(N3Cc4c(cc(CNC5(C)CCC5)cc4C(F)(F)F)C3=O)c2)C[C@@H](C)C1 [Compound 35]
Assayed Target: Cbl-b (Homo sapiens (Human), UniProt Q13191)
U: nM
IC50: 9.1
//
Molecule: Cn1cnnc1[C@](F)(c1ccccc1)c1cccc(N2Cc3c(cc(CNC4(C)CCC4)cc3C(F)(F)F)C2=O)c1 (single isomer, unassigned) [Compound 156]
Assayed Target: Cbl-b (Homo sapiens (Human), UniProt Q13191)
U: nM
IC50: 7700
//
Molecule: CCOc1cc([C@]2(c3nncn3C)C[C@@H](C)C2)cc(N2Cc3c(cc(CNC4(C)CCC4)cc3C(F)(F)F)C2=O)n1 [Compound 3]
Assayed Target: Cbl-b (Homo sapiens (Human), UniProt Q13191)
U: nM
IC50: 3.6
//
Molecule: Cn1cnnc1C(c1cccc(N2Cc3c(cc(CNC4(C)CCC4)cc3C(F)(F)F)C2=O)c1)[C@H]1C[C@@H](CC#N)C1 (single isomer, unassigned) [Compound 362]
Assayed Target: Cbl-b (Homo sapiens (Human), UniProt Q13191)
U: nM
IC50: 6

----------
target: Cbl-b (Homo sapiens (Human), UniProt Q13191); assay: Cbl-b LCK Ub TR-FRET assay (Cbl-b Lck HTRF); assay type: biochemical; conditions: ratio C-cbl Lck HTRF IC50 / Cbl-b Lck HTRF IC50
The following compounds are listed with their measured (fold-selectivity) Cbl-b and C-Cbl Selectivity values.
Measurement Kind: (fold-selectivity) Cbl-b and C-Cbl Selectivity (x)

Compound: Cn1cnnc1[C@@](O)(c1ccccc1)c1cccc(N2Cc3c(Cl)cc(CNC4(C)CCC4)cc3C2=O)c1 (single isomer, unassigned)
Numeric Value: 3.4

Compound: CO[C@H]1C[C@](c2cccc(N3Cc4c(cc(CNCC5(CO)CC6CC6C5)cc4C(F)(F)F)C3=O)c2)(c2nncn2C)C1 (stereo partly drawn)
Numeric Value: 4.7

Compound: Cn1cnnc1[C@@H](c1cccc(N2Cc3c(cc(CNC4(C)CCC4)cc3C(F)F)C2=O)c1)C1CC(F)C1 (single isomer, unassigned) [Compound 458]
Numeric Value: 3.1

Compound: CO[C@H]1C[C@](c2cccc(N3Cc4c(cc(CNC5COC5)cc4C(F)(F)F)C3=O)c2)(c2nncn2C)C1
Numeric Value: 7.1

Compound: Cn1cnnc1[C@]1(c2cccc(N3Cc4c(cc(CNC5(C)CCC5)cc4C(F)(F)F)C3=O)c2)C[C@@H](OC2CC2)C1
Numeric Value: 4.0

Compound: CC[C@H]1C[C@](c2cccc(N3Cc4c(cc(CNC5(C)CCC5)cc4C(F)(F)F)C3=O)c2)(c2nncn2C)C1
Numeric Value: 2.3

----------
target: Cbl-b (Homo sapiens (Human)); test: Cbl-b LCK Ub TR-FRET assay (Cbl-b Lck HTRF); assay type: biochemical; conditions: ratio C-cbl Lck HTRF IC50 / Cbl-b Lck HTRF IC50
Measurement Kind: (fold-selectivity) Cbl-b and C-Cbl Selectivity (x)

Compound: Cn1cnnc1[C@@H](c1cccc(N2Cc3c(cc([C@H](NC4(C)CCC4)C4CC4)cc3C(F)(F)F)C2=O)c1)C1COC1 (single isomer, unassigned)
Numeric Value: 1.1
//
Compound: C[C@@H](NC1(C)CCC1)c1cc2c(c(C(F)(F)F)c1)CN(c1cccc([C@@H](c3nncn3C)C3COC3)c1)C2=O
Numeric Value: 1.7
//
Compound: CO[C@H]1C[C@](c2cccc(N3Cc4c(cc(CN[C@]5(C)C[C@H](O)C5)cc4C(F)(F)F)C3=O)c2)(c2nncn2C)C1
Numeric Value: 10
//
Compound: C[C@H](NC1(C)CCC1)c1cc2c(c(C(F)(F)F)c1)CN(c1cccc([C@@H](c3nncn3C)C3COC3)c1)C2=O (single isomer, unassigned)
Numeric Value: 11
//
Compound: Cn1cnnc1[C@]1(c2cccc(N3Cc4c(Cl)cc(CNC5(C)CCC5)cc4C3=O)c2)C[C@H](Cl)C1
Numeric Value: 1.0
//
Compound: CC1(NCc2cc3c(c(C(F)(F)F)c2)CN(c2cccc([C@@H](c4nnc[nH]4)C4COC4)c2)C3=O)CCC1 (single isomer, unassigned)
Numeric Value: 3.2
//
Compound: CO[C@H]1C[C@](c2cccc(N3Cc4c(cc(CNC56CC(C5)C6)cc4C(F)(F)F)C3=O)c2)(c2nncn2C)C1
Numeric Value: 5.2
//
Compound: CC1(NCc2cc3c(c(C(F)(F)F)c2)CN(c2cccc([C@@H](C4COC4)n4ccnn4)c2)C3=O)CCC1 (single isomer, unassigned)
Numeric Value: 4.2
//
Compound: CO[C@H]1C[C@](c2cccc(N3Cc4c(cc(CNC[C@@H]5[C@@H](C)C5(F)F)cc4C(F)(F)F)C3=O)c2)(c2nncn2C)C1
Numeric Value: 3.0
//
Compound: CO[C@H]1C[C@](c2cccc(N3Cc4c(cc(CNC5CC6(C5)CC6(F)F)cc4C(F)(F)F)C3=O)c2)(c2nncn2C)C1 (stereo partly drawn)
Numeric Value: 4.6
//
Compound: CO[C@H]1C[C@](c2cccc(N3Cc4c(cc(CNC5CC6(C5)CC6F)cc4C(F)(F)F)C3=O)c2)(c2nncn2C)C1 (stereo partly drawn)
Numeric Value: 5.1
//
Compound: CO[C@H]1C[C@](c2cccc(N3Cc4c(cc(CN5CC6(CC6)C5)cc4C(F)(F)F)C3=O)c2)(c2nncn2C)C1
Numeric Value: 5.0
//
Compound: CO[C@H]1C[C@](c2cccc(N3Cc4c(cc(CN5CCOCC5)cc4C(F)(F)F)C3=O)c2)(c2nncn2C)C1
Numeric Value: 6.6
//
Compound: Cn1cnnc1[C@@H](c1cccc(N2Cc3c(cc(CN[C@H]4[C@@H]5COC[C@@H]54)cc3C(F)(F)F)C2=O)c1)C1COC1 (single isomer, unassigned)
Numeric Value: 3.2
//
Compound: Cn1cnnc1[C@@H](c1cccc(N2Cc3c(cc(CNC4(C)CCC4)cc3C(F)(F)F)C2=O)c1)[C@@H]1CCS(=O)(=O)C1 (single isomer, unassigned)
Numeric Value: 6.8
//
Compound: Cn1cnnc1[C@@H](c1cccc(N2Cc3c(cc([C@@H](NC4(C)CCC4)C4CC4)cc3C(F)(F)F)C2=O)c1)C1COC1 (single isomer, unassigned)
Numeric Value: 4.7
//
Compound: CO[C@H]1C[C@](c2cccc(N3Cc4c(cc(CNC5CCC5)cc4C(F)(F)F)C3=O)c2)(c2nncn2C)C1
Numeric Value: 5.2
//
Compound: CO[C@H]1C[C@](c2cccc(N3Cc4c(cc(CN[C@@H]5C[C@H]5C)cc4C(F)(F)F)C3=O)c2)(c2nncn2C)C1
Numeric Value: 4.1
//
Compound: CO[C@H]1C[C@](c2cccc(N3Cc4c(cc(CNC5CC(C(F)F)C5)cc4C(F)(F)F)C3=O)c2)(c2nncn2C)C1 (stereo partly drawn)
Numeric Value: 3.1
//
Compound: CO[C@H]1C[C@](c2cccc(N3Cc4c(cc(CNCC5(CF)CC5)cc4C(F)(F)F)C3=O)c2)(c2nncn2C)C1
Numeric Value: 5.2
//
Compound: C[C@@H](NC1(C)CCC1)c1cc2c(c(C(F)F)c1)CN(c1cccc([C@@H](c3nncn3C)C3COC3)c1)C2=O (single isomer, unassigned)
Numeric Value: 2.0
//
Compound: CO[C@H]1C[C@](c2cccc(N3Cc4c(cc(CNC5C[C@@H]6C[C@H]5CO6)cc4C(F)(F)F)C3=O)c2)(c2nncn2C)C1 (stereo partly drawn)
Numeric Value: 5.3
//
Compound: C[C@@H](NC1(C)CCC1)c1cc2c(c(C(F)(F)F)c1)CN(c1cccc([C@H](c3nncn3C)C3COC3)c1)C2=O
Numeric Value: 1.1
//
Compound: Cn1cnnc1[C@H](c1cccc(N2Cc3c(cc(CNC4(C)CCC4)cc3C(F)F)C2=O)c1)C1CC(F)C1 (stereo partly drawn) [Compound 461]
Numeric Value: 8.8
